Cathepsin S (Homo sapiens, UniProt P25774) pIC50 data
Sequence (P25774 whole entry): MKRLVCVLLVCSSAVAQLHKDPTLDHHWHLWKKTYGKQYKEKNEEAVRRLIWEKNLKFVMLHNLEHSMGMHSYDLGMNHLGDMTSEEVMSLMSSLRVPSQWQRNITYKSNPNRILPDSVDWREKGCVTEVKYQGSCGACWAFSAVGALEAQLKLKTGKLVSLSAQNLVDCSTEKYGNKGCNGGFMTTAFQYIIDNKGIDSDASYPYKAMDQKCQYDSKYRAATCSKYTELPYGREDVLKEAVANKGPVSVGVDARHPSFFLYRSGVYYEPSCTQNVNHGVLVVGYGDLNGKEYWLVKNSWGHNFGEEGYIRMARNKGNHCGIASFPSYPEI
pIC50: −log10 of the molar value.
measurementKind: pIC50

N#CC1(NC(=O)[C@@H]2C[C@@H](S(=O)(=O)c3ccccc3)CN2C(=O)c2ccccc2)CC1 ... 7.89
N#CC1(NC(=O)[C@@H]2C[C@@H](S(=O)(=O)c3ccccc3)C[C@H]2C(=O)N2CCCC2)CC1 ... 8.70

1: CC(=O)N1C[C@H](S(=O)(=O)c2ccccc2Cl)C[C@H]1C(=O)NC1(C#N)CC1
2: CN(C)C(=O)[C@@H]1C[C@H](S(=O)(=O)c2ccccc2)C[C@H]1C(=O)NC1(C#N)CC1
3: N#CCNC(=O)[C@@H]1CN(S(=O)(=O)c2ccccc2C(F)(F)F)C[C@H]1C(=O)N1CCOCC1
# sort list by recorded pIC50, greatest to least A complete answer lists every label in the requested sequence.
1, 2, 3
(1: 9.00, 2: 8.22, 3: 7.74)

I: CN1CCN(C(=O)[C@@H]2C[C@H](S(=O)(=O)c3ccccc3)C[C@H]2C(=O)NC2(C#N)CC2)CC1
II: N#CCNC(=O)[C@@H]1CN(S(=O)(=O)c2ccccc2)C[C@H]1C(=O)N1CCOCC1
Which of the two items, I and II , has the greater recorded pIC50? The response must carry the label of the picked entry.
I
